system: MDA-MB-231 breast; assay: NCI tumour cell line growth inhibition, 48 h
Decide using TGI: a value greater than or equal to 30 µM is met, a smaller one is not met.

{"MOLECULE": "COc1ccc(/C=C2/SC(c3c(O)ccc4ccccc34)N(NC(=O)CCCCCCCCC(=O)NN3C(=O)/C(=C\\c4ccc(OC)c(OC)c4)SC3c3c(O)ccc4ccccc34)C2=O)cc1OC (stereo not given)", "CLASS NAME": "met"}

In plain terms: is recorded TGI at least 30 µM for CC(=Nc1ccccc1)C1=C(O)C(Cc2ccc(F)cc2)NC1=O (stereo not given) ?
met

In plain terms: is recorded TGI at least 30 µM for COc1cc(=O)oc(/C=C/C=C/C=C/C(C)=C\C2(C)OC(C)C(C)(O)C2O)c1C (stereo not given) ?
met

In plain terms: is recorded TGI at least 30 µM for COc1c2occc2cc2ccc(=O)oc12 ?
met

In plain terms: is recorded TGI at least 30 µM for Nc1nc(Cc2ccccc2)nc(Cc2ccccc2)c1-c1ccccc1 ?
met

In plain terms: is recorded TGI at least 30 µM for COc1cc2c(cc1OC)-c1ncc3cc(OC)c(OC)c(OC)c3c1C2 ?
met

In plain terms: is recorded TGI at least 30 µM for CCOc1cc(/C=C2\N=C(c3ccccc3)N(c3nc4ccccc4s3)C2=O)ccc1O ?
met

In plain terms: is recorded TGI at least 30 µM for C[C@@H]1OC(=O)NN=C1c1ccc(-c2ccc(F)cc2)c(C(F)(F)F)c1 ?
not met

In plain terms: is recorded TGI at least 30 µM for CC(C)=CCc1c(O)c(C(=O)CC(C)C)c(O)c2c(-c3ccccc3)cc(=O)oc12 ?
not met

In plain terms: is recorded TGI at least 30 µM for CN1CCN(Cc2ccc(NC(=O)c3cccc(C#Cc4c(N)ncc5ccc(F)cc45)c3)cc2C(F)(F)F)CC1 ?
not met

These data points were gathered from PubChem BioAssay (NCI).
